Listed here are compounds together with their documented Minimum Inhibitory Concentration (MIC).
tested on: Salm. enteritidis Gaertner; assay: MIC against Salm. enteritidis Gaertner; type: cell-based; conditions: Bacterial count inoculated 10^6 cells/ml
Give the figure by itself; no unit, no explanation.

Completed entries (count: 2):
Compound	Target	Measured Parameter	Number
CCN1CCN(C(=O)NC(C(=O)NC2C(=O)N3C(C(=O)O)=C(CSc4nnnn4C)CSC23)c2ccc(O)cc2)C(=O)C1=O (stereo not shown) [Comparative Compound (c), reference compound]	Salm. enteritidis Gaertner	Minimum Inhibitory Concentration (MIC)	0.4
Cc1nnc(SCC2=C(C(=O)O)N3C(=O)C(NC(=O)Cn4cnnn4)C3SC2)s1 (stereo not shown) [Comparative Compound (a), reference compound]	Salm. enteritidis Gaertner	Minimum Inhibitory Concentration (MIC)	3.1

Here is another compound to look at.
The recorded Minimum Inhibitory Concentration (MIC) for entry `CO/N=C(\C(=O)N[C@@H]1C(=O)N2C(C(=O)O)=C(CSc3nc(C(=O)O)c(N)n3C)CS[C@H]12)c1csc(N)n1` equals 0.2

---

Listed here are compounds together with their documented Cmax.
assay: maximum blood concentration after oral administration in Wister rats (HPLC and Bioassay); format: in vivo; conditions: Wister rat, fasted, 30 mg/kg, solution of pH 7 in phosphate buffer
Quick reminder: number only, in ng/mL, skip the unit.

Completed entries (count: 2):
In [3]: df
Out[3]:
                                   compound  number
0  CC(C)(O/N=C(\C(=O)N[C@@H]1C(=O)N2C(C(=O)O)=C(CSc3nnc(CC(N)C(=O)O)s3)CS[C@H]12)c1csc(N)n1)C(=O)O (stereo partly shown)    8000
1  CO/N=C(\C(=O)N[C@@H]1C(=O)N2C(C(=O)O)=C(COC(C)=O)CS[C@H]12)c1csc(N)n1 [Comparative Compound (b), reference compound]     200

The recorded Cmax for entry `CO/N=C(\C(=O)N[C@@H]1C(=O)N2C(C(=O)O)=C(CSc3nc(C(=O)O)c(N)n3C)CS[C@H]12)c1csc(N)n1` equals 16000

The recorded Cmax for entry CO/N=C(\C(=O)N[C@@H]1C(=O)N2C(C(=O)O)=C(C[n+]3cccc(CC(N)C(=O)O)c3)CS[C@H]12)c1csc(N)n1 (stereo partly shown) equals 12000

The recorded Cmax for entry CO/N=C(\C(=O)N[C@@H]1C(=O)N2C(C(=O)O)=C(C[n+]3ccc(CC(N)C(=O)O)cc3)CS[C@H]12)c1csc(N)n1 (stereo partly shown) equals 9000

The recorded Cmax for entry CO/N=C(\C(=O)N[C@@H]1C(=O)N2C(C(=O)O)=C(CSc3nnc(CC(N)C(=O)O)s3)CS[C@H]12)c1csc(N)n1 (stereo partly shown) equals 7000

The recorded Cmax for entry `CO/N=C(\C(=O)N[C@@H]1C(=O)N2C(C(=O)O)=C(CSc3ncc(C[C@H](N)C(=O)O)[nH]3)CS[C@H]12)c1csc(N)n1` equals 6000

---

Test: acute toxicity test using mice, intraperitoneal
Details: mouse, in vivo, ip
Source text: In addition to excellent antibacterial activity, the compounds of the present invention are low in toxicity. For example, in acute toxicity test using mice, the following results were obtained with Compound Nos. 2, 3, 7, 14, 15 and 23 which were intraperitoneally administered.
Measured Parameter: LD50

Completed entries (count: 4):
Compound	LD50
CO/N=C(\C(=O)N[C@@H]1C(=O)N2C(C(=O)O)=C(C[n+]3cccc(CC(N)C(=O)O)c3)CS[C@H]12)c1csc(N)n1 (some centres unmarked) [Compound No. 15]	10000 to 12000 mg/kg
CO/N=C(\C(=O)N[C@@H]1C(=O)N2C(C(=O)O)=C(C[n+]3ccc(CC(N)C(=O)O)cc3)CS[C@H]12)c1csc(N)n1 (some centres unmarked) [Compound No. 14]	9000 to 10000 mg/kg
CO/N=C(\C(=O)N[C@@H]1C(=O)N2C(C(=O)O)=C(CSc3nc(C(=O)O)c(N)n3C)CS[C@H]12)c1csc(N)n1 [Compound No. 2]	9000 to 10000 mg/kg
CO/N=C(\C(=O)N[C@@H]1C(=O)N2C(C(=O)O)=C(CSc3ncc(C[C@H](N)C(=O)O)[nH]3)CS[C@H]12)c1csc(N)n1 [Compound No. 23]	10000 to 12000 mg/kg

Here is another compound to look at.
The recorded LD50 for entry CO/N=C(\C(=O)N[C@@H]1C(=O)N2C(C(=O)O)=C(CSc3nnc(CC(N)C(=O)O)s3)CS[C@H]12)c1csc(N)n1 (some centres unmarked) [Compound No. 7] equals 9000 to 12000 mg/kg

Source: patent US4616081A
